# target of assay: Protein translocase subunit SecA (Escherichia coli (strain K12)) (UniProt P10408)
# Sequence (P10408 whole entry): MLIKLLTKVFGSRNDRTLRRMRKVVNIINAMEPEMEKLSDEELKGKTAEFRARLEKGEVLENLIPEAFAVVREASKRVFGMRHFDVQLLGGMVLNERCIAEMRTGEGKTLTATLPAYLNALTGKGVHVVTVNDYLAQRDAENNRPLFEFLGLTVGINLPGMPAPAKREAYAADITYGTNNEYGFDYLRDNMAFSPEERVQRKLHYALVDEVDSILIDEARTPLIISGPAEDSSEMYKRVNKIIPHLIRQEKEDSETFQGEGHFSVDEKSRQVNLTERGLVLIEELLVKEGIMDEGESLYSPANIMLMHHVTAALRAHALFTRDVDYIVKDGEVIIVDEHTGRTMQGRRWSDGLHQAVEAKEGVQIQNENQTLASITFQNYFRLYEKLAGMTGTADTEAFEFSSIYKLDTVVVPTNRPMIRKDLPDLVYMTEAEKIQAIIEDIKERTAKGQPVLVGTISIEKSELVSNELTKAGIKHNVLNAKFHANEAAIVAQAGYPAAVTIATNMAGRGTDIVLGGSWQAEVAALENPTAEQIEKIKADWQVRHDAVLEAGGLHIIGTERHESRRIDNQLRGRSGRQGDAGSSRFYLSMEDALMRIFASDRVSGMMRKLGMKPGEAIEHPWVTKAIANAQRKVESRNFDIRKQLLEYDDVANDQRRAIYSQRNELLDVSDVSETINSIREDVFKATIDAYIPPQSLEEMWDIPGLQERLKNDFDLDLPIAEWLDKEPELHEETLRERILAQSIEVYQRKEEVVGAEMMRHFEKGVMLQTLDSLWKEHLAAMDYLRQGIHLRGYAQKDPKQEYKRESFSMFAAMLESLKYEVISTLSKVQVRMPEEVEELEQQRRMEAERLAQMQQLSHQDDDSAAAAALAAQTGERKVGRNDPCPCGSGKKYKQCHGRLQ
# protocol: Assay to Identify E. coli SecA ATPase Inhibitors
# Format: functional
# Design: scale not given: direction of the effect not stated beside the values
# experimental setup: 30 µM
Results with a measured potency or affinity are listed apart.
observation type: Percent Effect (%)

compound=COCc1ncc(CN2CCC(Oc3ccccc3OC)CC2)cn1 result_units=% meas_value=-4.09
compound=C[C@@H]1C(=O)NC[C@H]2CN(CCc3ccccc3)C[C@H]21 result_units=% meas_value=-0.103
compound=COC(=O)C1CCN(C(=O)c2ccc(N(C)S(C)(=O)=O)c(C)c2)CC1 result_units=% meas_value=-3.72
compound="CCN(CC1CCCO1)C(=O)Nc1cc(C(=O)OC)ccc1F (stereo not given)" result_units=% meas_value=-2.67
compound=CCS(=O)(=O)CCn1ccc(NC(=O)CCc2cccc(C)c2)n1 result_units=% meas_value=-1.95
compound="COc1ccc(C(C(=O)O)N2CCCN(C3CCCC3)CC2)cc1OC (stereo not given)" result_units=% meas_value=-8.69
compound="O=C1NC2(CCN(C(=O)c3ccccc3)CC2)CC1c1cccnc1 (stereo not given)" result_units=% meas_value=-4.51
compound="O=C(NCC(O)CN1CCc2ccccc2C1)Nc1cccnc1 (stereo not given)" result_units=% meas_value=-4.38
compound="Cc1nc(N)sc1C(=O)N1CCCC(c2nccn2CCCN(C)C)C1 (stereo not given)" result_units=% meas_value=-5.86
compound="Cc1ncccc1NC(=O)C1=NOC2(CCN(Cc3nccs3)C2)C1 (stereo not given)" result_units=% meas_value=-7.98
compound="CCc1nccn1C1CCCN(C(=O)c2csc(COC)n2)C1 (stereo not given)" result_units=% meas_value=-5.68
compound="COCC1CC2(CCN(Cc3cnn(C)c3)CC2)CN1c1ncccn1 (stereo not given)" result_units=% meas_value=-2.97
compound=CN1[C@H](CN2CCCC2)C[C@@H]2CN(C(=O)c3cccn3C)CC[C@@H]21 result_units=% meas_value=-1.76
compound="CC(NC(=O)N(C)CCCOc1ccc(F)cc1)c1nncn1C (stereo not given)" result_units=% meas_value=-2.67
compound=Cc1nnc(CCNC2CCN(c3ncnc4c(C)csc34)CC2)s1 result_units=% meas_value=-3.21
compound="CN1CCOC(CNCCc2ccccn2)C1 (stereo not given)" result_units=% meas_value=-2.22
compound=Cc1ncsc1C(=O)N(Cc1cccnc1)C1CC1 result_units=% meas_value=-0.351
compound=CCOc1ncccc1CNC(=O)Nc1ccc(N(C)C)nc1 result_units=% meas_value=-5.71
compound="Cn1ccnc1CN1CCN(CC(O)c2cccc(F)c2)CC1 (stereo not given)" result_units=% meas_value=-1.52
compound=CNc1oc(-c2ccc(OC)c(S(=O)(=O)N3CCCCC3)c2)nc1C#N result_units=% meas_value=-1.33
compound=Cn1ccc(C(=O)NCc2ccc(N3CCCC3)nc2)cc1=O result_units=% meas_value=-3.18
compound="COC1CCCN(C(=O)Nc2nc(C)n(C)n2)C1 (stereo not given)" result_units=% meas_value=-4.33
compound="CSc1ccc(C(CN)N2CCc3sccc3C2)cc1 (stereo not given)" result_units=% meas_value=0.534
compound=COc1nc(C)c(C(=O)N(C)Cc2nc(-c3ccccn3)no2)s1 result_units=% meas_value=-2.52
compound=CCOc1ccc2[nH]c(=O)c(CN3CCC(O)CC3)cc2c1 result_units=% meas_value=-8.45
compound="COCC1c2nnn(CC3CC3)c2CCN1C(=O)c1ccnnc1 (stereo not given)" result_units=% meas_value=-5.05
compound=Cc1cc(C)c2c(OCC(=O)NC(C)C)nn(C)c2n1 result_units=% meas_value=-3.72
compound="NC(=O)c1ccc(CN2CCCC(N3CCCC3)C2)cc1 (stereo not given)" result_units=% meas_value=-3.01
compound="CC(C)c1nc(CN2CCN(CC3CCCO3)CC2)cs1 (stereo not given)" result_units=% meas_value=1.19
compound="Cc1ccc(CNC(=O)CN2CCCC(Cn3cncn3)C2)s1 (stereo not given)" result_units=% meas_value=0.165
compound="CC1CCCCN1C(=O)CN1CCN(c2ccc3nncn3n2)CC1 (stereo not given)" result_units=% meas_value=-3.43
compound=COCCN1C[C@@H]2CN(Cc3cccc(F)c3)CCC[C@]2(C(=O)O)C1 result_units=% meas_value=-4.38
compound="COCc1cc(O)nc(C2CCCN(Cc3cc(OC)ccc3F)C2)n1 (stereo not given)" result_units=% meas_value=-7.04
compound=CSc1ccccc1CN1CCCn2nc(CNC(=O)N(C)C)cc2C1 result_units=% meas_value=-2.86
compound="Cc1csc(N2CCN(CC(=O)Nc3c(C)n[nH]c3C)CC2C)n1 (stereo not given)" result_units=% meas_value=-1.64
compound="COCCN1CCC(CN(CC2CCCO2)C(=O)CCNC(C)=O)CC1 (stereo not given)" result_units=% meas_value=-1.45
compound="Cn1cccc1C1CCCN1C(=O)NCCCn1cccn1 (stereo not given)" result_units=% meas_value=-1.96
compound=N#Cc1ncn(CCC(=O)Nc2ccc(Cl)cc2F)n1 result_units=% meas_value=1.65
compound=Cc1cccc(C)c1NC(=O)CCNC(=O)c1ccoc1 result_units=% meas_value=-3.75
compound=COC[C@@]12CC[C@@H](N3CCOCC3)C[C@H]1CCN(c1ncccc1Cl)C2 result_units=% meas_value=-6.53
